Each entry below lists one item and its recorded MV4-11 %inh value.
- Tested on: MV4-11
- Design: species or system AML cell lines (8); Primary HTS, single concentration about 10 uM, Cell Titer Glo viability; log10 luminescence, per cent inhibition relative to cycloheximide control
- reported.conditions: 72 h, relative to cycloheximide control, log10 luminescence; inhibitor
metric: MV4-11 %inh (%)

molecule="N=C1NC(=O)N2CC12 (centres unmarked) [SJ000564440-1, IMEXON]" target_desc=MV4-11 value_units=% experimental_result=2.121
molecule=CNC(=O)c1cncc(/C=C/c2c(C)cccc2C)c1 target_desc=MV4-11 value_units=% experimental_result=1.251
molecule=C#C[C@]1(O)CC[C@H]2[C@@H]3CCC4=CCCC[C@@H]4[C@H]3C(=C)C[C@@]21CC target_desc=MV4-11 value_units=% experimental_result=4.001
molecule="COc1ccc(Cl)cc1C(=O)NCCc1ccc(S(=O)(=O)NC(=O)NC2CCCCC2)cc1 [SJ000285391-7, GLYBURIDE | GLIBENCLAMIDE]" target_desc=MV4-11 value_units=% experimental_result=0.5716
molecule=Fc1cccc(COc2ccc(Nc3ncnc4sc(-c5cccs5)cc34)cc2Cl)c1 target_desc=MV4-11 value_units=% experimental_result=-2.021
molecule="CC1(C)O[C@@H]2C[C@H]3[C@@H]4C[C@H](F)C5=CC(=O)CC[C@]5(C)[C@H]4[C@@H](O)C[C@]3(C)[C@]2(C(=O)CO)O1 [SJ000287138-3, FLURANDRENOLIDE]" target_desc=MV4-11 value_units=% experimental_result=-1.501
molecule=Nc1c(C(=O)c2ccccc2)cnn1-c1ccc(F)cc1 target_desc=MV4-11 value_units=% experimental_result=-1.368
molecule=N#CCn1c(=O)c(Oc2ccc(F)cc2F)cc2cnc(NC3CCOCC3)nc21 target_desc=MV4-11 value_units=% experimental_result=0.2945

====

- assay.explanation: Pharmacokinetics of ruxolitinib, single oral dose, plasma LC-MS/MS
- Type: in vivo, mice
- reported.conditions: mouse, NSG, Male, 60 mg kg−1 oral gavage
metric: AUC(0-t) (µM·h)

input_smiles=N#CC[C@H](C1CCCC1)n1cc(-c2ncnc3[nH]ccc23)cn1 value_units=µM·h experimental_result=4.1

====

Each entry below lists one item and its recorded ML-2 %inh value.
- Test system: ML-2
- Set-up: species or system AML cell lines (8); Primary HTS, single concentration about 10 uM, Cell Titer Glo viability; log10 luminescence, per cent inhibition relative to cycloheximide control
- reported.conditions: 72 h, relative to cycloheximide control, log10 luminescence; inhibitor
metric: ML-2 %inh (%)

molecule="Nc1c(C(=O)c2cccc(OC[C@H](O)CO)c2)cnn1-c1ccc(F)cc1 [SJ000581020-1]" experimental_result=2.034
molecule="Oc1ccc(-c2c(-c3ccccc3)nn3c(C(F)(F)F)cc(C(F)(F)F)nc23)cc1 [SJ000546500-1, PHTPP]" experimental_result=-0.1539
molecule="CC(C)c1[nH]nc2c1N=C(c1ccccc1Cl)c1cc([N+](=O)[O-])ccc1N2 [SJ000580955-1]" experimental_result=-0.2118
molecule="O=C1NC(=N[C@H](CO)Cc2ccccc2)S/C1=C\\c1ccc2ncccc2c1 [SJ000581019-2]" experimental_result=1.703

====

- Tested on: U937
- assay.explanation: cells
- Set-up: species or system AML cell lines (8)
- reported.conditions: Homo sapiens, U-937, 72 h, read-out: U937
pEC50: −log10 of the molar value.
Each entry below lists one item and its recorded pEC50 value.
metric: pEC50

compound=COC1=CC(=O)O[C@@H](/C=C/c2ccc3c(c2)OCO3)C1 experimental_result="< 5.00"
compound="O=P1(NCCCl)OCCCN1CCCl (centres unmarked) [IFOSFAMIDE]" experimental_result="< 5.00"
